EXPERIMENTAL TARGET: glutathione S-transferase Pi (GSTP1) (Homo sapiens, UniProt P09211)
Sequence (P09211 2-210): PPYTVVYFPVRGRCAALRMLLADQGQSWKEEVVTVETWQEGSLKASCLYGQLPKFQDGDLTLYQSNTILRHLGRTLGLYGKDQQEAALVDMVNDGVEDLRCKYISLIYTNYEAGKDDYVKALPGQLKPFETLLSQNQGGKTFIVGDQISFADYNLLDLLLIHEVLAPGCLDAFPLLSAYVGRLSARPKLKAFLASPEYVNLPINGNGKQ
MEASUREMENT PROTOCOL: GSH substrate assay in recombinant GSTP1 lysates
READOUT NAME: IC50 (µM)
Number only, in µM; omit the unit.

# compound O=S(=O)(c1ccc2ccccc2c1)n1cnc(-c2ccncc2)n1 ; its IC50 = 16

* * *

Protein target, amino acids: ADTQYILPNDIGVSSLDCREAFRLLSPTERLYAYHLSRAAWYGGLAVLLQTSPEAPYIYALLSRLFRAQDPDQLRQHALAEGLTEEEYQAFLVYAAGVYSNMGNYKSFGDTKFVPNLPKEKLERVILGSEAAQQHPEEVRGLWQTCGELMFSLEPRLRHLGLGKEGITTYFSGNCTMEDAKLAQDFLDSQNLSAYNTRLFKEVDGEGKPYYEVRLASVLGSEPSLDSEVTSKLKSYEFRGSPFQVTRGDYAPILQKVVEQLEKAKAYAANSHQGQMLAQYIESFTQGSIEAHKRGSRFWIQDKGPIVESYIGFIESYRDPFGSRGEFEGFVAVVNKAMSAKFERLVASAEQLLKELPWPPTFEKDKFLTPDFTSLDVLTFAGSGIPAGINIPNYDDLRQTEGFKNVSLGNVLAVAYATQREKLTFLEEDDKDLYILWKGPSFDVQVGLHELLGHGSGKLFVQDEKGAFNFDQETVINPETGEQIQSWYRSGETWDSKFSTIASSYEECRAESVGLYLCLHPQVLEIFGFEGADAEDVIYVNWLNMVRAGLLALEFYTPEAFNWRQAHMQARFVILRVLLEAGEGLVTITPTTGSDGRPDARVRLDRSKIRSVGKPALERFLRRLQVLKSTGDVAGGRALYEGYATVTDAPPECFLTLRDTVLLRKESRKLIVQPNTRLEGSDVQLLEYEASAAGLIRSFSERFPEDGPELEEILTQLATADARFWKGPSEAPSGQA
READOUT NAME: pIC50
Keep it numeric: pIC50 is minus log10 of the concentration in mol/L.

pIC50 reading for COc1ccc(-c2ncn(S(=O)(=O)c3ccc(-c4ccccc4)cc3)n2)cc1 : 4.77
